# method summary: Metabolic stability in human hepatic microsome
# Assay type: in vitro ADME
# conditions used: microsomes, pH 7.4; human hepatic microsome, NADPH(+); read-out: CL NADPH(+)
Starred links: 1 amine or outer side, 2 acyl side, 3 side chain; linkers in the order of their positions; H or OH if unused. Positions of bridges follow the written chain, without caps; N, C: chain ends. Non-standard residues stand in square brackets, D forms with d. Residues, ends and D or L forms follow the SMILES beside them. *: point of attachment. NMeF = CN[C@@H](Cc1ccccc1)C(=O)O; NMeβAla = CN(CCC(=O)[*:2])[*:1]; NMeL = CN[C@@H](CC(C)C)C(=O)O; Piperidide = C1CCN(*)CC1
measured metric: microsomal CLint at 1 uM

Challenge: Give the value of microsomal CLint at 1 uM reported for the following: CC[C@H](C)[C@H](NC(=O)[C@H](CC(C)C)N(C)C(=O)[C@@H]1CCCN1C(=O)[C@H](Cc1ccccc1)N(C)C(=O)[C@@H]1CC(=O)N(C)CCC(=O)N[C@@H](Cc2ccccc2)C(=O)N(C)[C@@H](CC(C)C)C(=O)N[C@@H]([C@@H](C)O)C(=O)N[C@@H](C(C)C)C(=O)NCC(=O)N(C)[C@@H](CC(C)C)C(=O)N[C@@H](CC(C)C)C(=O)N(C)[C@@H](CC(C)C)C(=O)N1)C(=O)N1CCCCC1 [DP-948] ([NMeβAla]F[NMeL]TVG[NMeL]L[NMeL]D[NMeF]P[NMeL]I-Piperidide; lactam N-10)
Response given: 20 µL/min/mg
